System: 3A6
protocolNotes: steady-state hydrolysis kinetics, Hanes-Woolf plot
Format: biochemical
testParameters: read-out: 3A6 / Km; 100 mM Tris-sulfate, pH 8.5, 40 °C, enzyme 0-12 nM
Quick reference for Km among some compounds
attributeMeasured: Km (µM)

compound: COc1cc(/C=C/C(=O)OC[C@@H]2O[C@@H](Oc3ccc([N+](=O)[O-])cc3)[C@H](O)[C@H]2O)ccc1O [Nph-5-Fe-Araf]
target: 3A6
attributeMeasured: Km
readoutValue: 970
//
compound: COC(=O)/C=C/c1cc(OC)c(O)c(OC)c1 [Methyl sinapinate]
target: 3A6
attributeMeasured: Km
readoutValue: 400
//
compound: COC(=O)/C=C/c1ccc(O)cc1 [Methyl p-coumarate]
target: 3A6
attributeMeasured: Km
readoutValue: 1550
//
compound: CC(=O)Oc1ccc([N+](=O)[O-])cc1 [p-Nitrophenyl acetate]
target: 3A6
attributeMeasured: Km
readoutValue: 180
//
compound: COc1cc(/C=C/C(=O)OC[C@@H]2O[C@@H](O[C@@H]3[C@@H](O)[C@H](O[C@@H]4COC(O)[C@H](O)[C@H]4O)OC[C@H]3O)[C@H](O)[C@H]2O)ccc1O (stereo partly drawn) [FAXX]
target: 3A6
attributeMeasured: Km
readoutValue: 1960
//
compound: COC(=O)/C=C/c1ccc(O)c(OC)c1 [Methyl ferulate]
target: 3A6
attributeMeasured: Km
readoutValue: 2340
//
compound: CCCCCC(=O)Oc1ccc([N+](=O)[O-])cc1 [p-Nitrophenyl hexanoate]
target: 3A6
attributeMeasured: Km
readoutValue: 1530
//
compound: CCCC(=O)Oc1ccc([N+](=O)[O-])cc1 [p-Nitrophenyl butyrate]
target: 3A6
attributeMeasured: Km
readoutValue: 240
//
compound: CCC(=O)Oc1ccc([N+](=O)[O-])cc1 [p-Nitrophenyl propionate]
target: 3A6
attributeMeasured: Km
readoutValue: 150
